Tested on: UACC-62 melanoma
Test: NCI tumour cell line growth inhibition, 48 h
Output: class label from TGI. Mapping: low band (below 4 µM), middle band (4 µM to below 30 µM), high band (30 µM or more)

Worked examples, 5 molecules total:
molecule	category
O=C(/C=C\c1ccc(Cl)c(Cl)c1)c1ccc(Cl)cc1Cl	high band
Cc1cc(N(CCOS(C)(=O)=O)CCOS(C)(=O)=O)ccc1C=O	middle band
CC(C)[C@H]1COC(=O)N1[C@@H]1C(=O)N([C@@H](CCC(=O)N2CCN(C3CCCC3)CC2)C(=O)N[C@@H]2CCCc3ccccc32)[C@@H]1/C=C/c1cccc(Br)c1	low band
CCNC(=O)Cc1nc2c(N)ncnc2n1C1OC(CO)C(O)C1O (stereo unspecified)	high band
CN(C)c1ccc(C(=N/N=C2\C(=O)Nc3ccccc32)c2ccc(N(C)C)cc2)cc1	high band

// return the class label for "COc1ccc(S(=O)(=O)NNS(C)(=O)=O)cc1" high band

// return the class label for "OCc1ccc(-c2ccc(-c3ccc(CO)s3)o2)s1" low band

// return the class label for "ClCc1cccc(Cn2cnc3ncnc(Cl)c32)c1" middle band

// return the class label for "O=C(Nc1ccc(Cl)cc1)c1cccc(NC2=C(Cl)C(=O)N(Cc3ccccc3)C2=O)c1" middle band

// return the class label for OC(c1nc2ccccc2[nH]1)C(O)C(O)C(O)c1nc2ccccc2[nH]1 (stereo unspecified) high band

* * *

System: HCC-2998 colon
Test: NCI tumour cell line growth inhibition, 48 h
Attribute: TGI
Give the quantity in µM, number only.

compound	endpoint-value
CO[C@H]1/C=C(/C)CCC[C@H](C)[C@H](O)[C@@H](C)C(=O)C(C)(C)[C@@H](O)CC(=O)O[C@@H]1/C(C)=C/c1csc(C)n1	0.259

Recorded TGI (compound CCOC(=O)C1=C(C)C2C=C(c3cccs3)CC(c3ccc(Cl)cc3)=C2OC1=O (stereo not given) ): 77.3

Recorded TGI (compound "O=C(/C=C/c1ccc2c(c1)OCO2)CC(=O)C(=O)c1c[nH]c2ccccc12" ): 48.4

Recorded TGI (compound "Clc1ccc(C(c2ccc(Cl)cc2)c2ccccn2)cc1" ): 30.9

* * *

Test system: SR leukemia
Assay: NCI tumour cell line growth inhibition, 48 h
Record 1 whenever TGI is at 5 µM or higher; record -1 when lower.

Worked examples, 5 compounds total:
compound	category
Cc1ccc2c(c1)C(=O)C1(Cc3ccccc3C1=O)C2 (centres undefined)	1
CCN(CC)/C(SCc1ccccc1)=C(\C(Cl)=C(Cl)Cl)[N+](=O)[O-]	1
CCOC(=O)c1nc2c(nc1C(=O)OCC)C(=O)c1ccccc1C2=O	-1
COC(=O)C1=C(C)NC(C)=C(C(=O)OCCCN2CCC(c3ccccc3)(c3ccccc3)CC2)C1c1cccc([N+](=O)[O-])c1 (centres undefined)	-1
Cn1cnc([N+](=O)[O-])c1S(=O)(=O)Oc1cccc2ccccc12	-1

Hello, I need to know if "C=CCSc1nnc2cc(CN3CCCC3)c(-c3ccc(Cl)cc3)nn12" has measured TGI not below 5 µM. Thanks! 1

Hello, I need to know if "Cc1cc(-c2ccc3nc(C4CCOCC4)n(CCOC(F)(F)F)c3c2)cn(C)c1=O" has measured TGI not below 5 µM. Thanks! 1

Hello, I need to know if "CCN(CC)c1ccc(-c2cc(-c3cc(OC)c(OC)c(OC)c3)nc(N3CCOCC3)c2C#N)cc1" has measured TGI not below 5 µM. Thanks! -1

Hello, I need to know if CCOP(=O)(OCC)C(c1ccc(F)cc1)N(C(=O)NC(F)(F)F)c1ccc(OC)cc1 (centres undefined) has measured TGI not below 5 µM. Thanks! 1

* * *

Tested on: SF-268 CNS
Test: NCI tumour cell line growth inhibition, 48 h
property-name: TGI

Reference set (3 entries):
molecule	TGI
O=C1c2cc3c(cc2-c2c1c1ccc(F)cc1c(=O)n2CCCNCCO)OCO3	1.16 µM
OC(c1nc2ccccc2[nH]1)C(O)C(O)C(O)c1nc2ccccc2[nH]1 (stereo not given)	> 100 µM
O=C(O)CCC(=O)OC1N=C(c2ccccc2Cl)c2cc([N+](=O)[O-])ccc2NC1=O (stereo not given)	> 100 µM

Recorded TGI (molecule COc1ccc2c(c1)OCC1Cc3ccccc3OC21 (stereo not given) ): > 100 µM

Recorded TGI (molecule "NS(=O)(=O)c1cc(Cl)c(NC(=S)NC(=O)Nc2ccc(Cl)c(Cl)c2)c(Cl)c1" ): > 100 µM

* * *

Tested on: NCI-H522 lung
Assay: NCI tumour cell line growth inhibition, 48 h
property-name: GI50

Reference set (6 entries):
compound	system-under-test	property-name	endpoint-value
ClCc1cccc(Cn2cnc3ncnc(Cl)c32)c1	NCI-H522 lung	GI50	6190 nM
CCN1CCN(c2nc(C)cc(N(CCNc3ccnc4cc(Cl)ccc34)Cc3ccc4c(c3)OCO4)n2)CC1	NCI-H522 lung	GI50	1950 nM
Fc1cc2[nH]ncc2c2c3c(c(-c4cn[nH]c4)nc12)CCCC3	NCI-H522 lung	GI50	829 nM
COc1cc(/C=C/c2cc(O)c(C(C)=O)c(O)c2)cc2c1O[C@]1(C)CC[C@@H](O)C(C)(C)[C@H]1C2	NCI-H522 lung	GI50	17300 nM
Cc1cc2c(cc1Cl)SC(N(N(C)C)S(=O)(=O)c1ccc(Cl)cc1)=NS2(=O)=O	NCI-H522 lung	GI50	11100 nM
Cc1cc(-c2ccc3nc(C4CCOCC4)n(CCOC(F)(F)F)c3c2)cn(C)c1=O	NCI-H522 lung	GI50	244 nM

Recorded GI50 (compound "COc1ccc(-c2nnc(COc3ccc(NC(=O)Nc4cc(C(F)(F)F)cc(C(F)(F)F)c4)cc3F)o2)cc1" ): 2150 nM

Recorded GI50 (compound "C=C1C(=O)O[C@H]2[C@H]1CC/C(COC(=O)c1c[nH]c3ccccc13)=C\CC[C@@]1(C)O[C@@H]21" ): 194 nM

Recorded GI50 (compound "COc1cccc(-c2nc(-c3ccc(NC(=O)C(C)C)cc3)[nH]c2-c2ccnc(Br)c2)c1" ): 2800 nM

Recorded GI50 (compound "[Cl-].[La+3].[O-]/N=C(\c1ccccc1)c1ccccn1.[O-]/N=C(\c1ccccc1)c1ccccn1.[O-]/N=C(\c1ccccc1)c1ccccn1" ): 44500 nM

Recorded GI50 (compound O=C1OC(O)[C@@H]2[C@H]1[C@H]1CC[C@@H]2O1 (stereo partly specified) ): 26300 nM

Recorded GI50 (compound "CN(C(=O)c1ccc(C(F)(F)F)cc1)c1ccc(Oc2ccc3c(c2)cc(C(=O)N2CCN(Cc4ccc(OC(F)F)cc4)CC2)n3C)nc1" ): 677 nM

Recorded GI50 (compound "COc1cc(/C=C2\CN(S(=O)(=O)c3ccccc3)C/C(=C\c3cc(CN4CCCC4)c(O)c(OC)c3)C2=O)cc(CN2CCCC2)c1O" ): 318 nM

Recorded GI50 (compound "COc1cc2c3c(n(C)c(=O)c2cc1OC)-c1cc2c(cc1/C3=C\CCCN)OCO2" ): 610 nM

Recorded GI50 (compound "COc1ccc([C@H]2[C@@H](F)C(=O)N2c2cc(OC)c(OC)c(OC)c2)cc1F" ): 38.3 nM

Recorded GI50 (compound "Cc1c2c(nn1-c1ccc(S(=O)(=O)/N=C3\SCCC(=O)N3c3ccccc3)cc1)-c1ccccc1CC2" ): 91400 nM

* * *

System: CCRF-CEM leukemia
Experiment: NCI tumour cell line growth inhibition, 48 h
property-name: TGI

Reference set (6 entries):
compound	TGI
C=C(Br)C(C)(Br)CCC(Br)C(C)(C)Cl (configuration not stated)	13.4 µM
NS(=O)(=O)c1cc(Br)c(N=Nc2ccc(O)c3ncccc23)c(Br)c1	6.74 µM
N#CC12C(=O)N=C(N)C1(C#N)C(c1ccco1)NC1=C2CCCC1 (configuration not stated)	> 100 µM
O=C1c2cc3c(cc2-c2c1c1ccc(F)cc1c(=O)n2CCCNCCO)OCO3	1.27 µM
O=C(CSc1ccc(Cl)cc1)Nc1ccc(-c2nc3ccccc3s2)c(Cl)c1	> 100 µM
O=C(O)CCC(=O)OC1N=C(c2ccccc2Cl)c2cc([N+](=O)[O-])ccc2NC1=O (configuration not stated)	> 100 µM

Recorded TGI (compound NC1=NCC(CN2CCOCC2)O1 (configuration not stated) ): > 100 µM

Recorded TGI (compound CC1=CC(O)(c2ccc(-c3ccccc3Cl)cc2)OC1=O (configuration not stated) ): > 100 µM

Recorded TGI (compound COC(=O)C1=C(C)NC(C)=C(C(=O)OCCCN2CCC(c3ccccc3)(c3ccccc3)CC2)C1c1cccc([N+](=O)[O-])c1 (configuration not stated) ): > 100 µM

Recorded TGI (compound "COc1cccc2c(=O)oc(-c3ccc(C(C)(C)C)cc3)nc12" ): > 100 µM

Recorded TGI (compound "Oc1ccc([I+]c2ccccc2)cc1O" ): 60.4 µM

Recorded TGI (compound CCCCCCCCC/C=C1\CCC(CN2CCOCC2)C1=O (configuration not stated) ): 6.56 µM

Recorded TGI (compound "CO[C@H]1/C=C(/C)CCC[C@H](C)[C@H](O)[C@@H](C)C(=O)C(C)(C)[C@@H](O)CC(=O)O[C@@H]1/C(C)=C/c1csc(C)n1" ): > 100 µM

Recorded TGI (compound Cc1ccc2c(c1)C(=O)C1(Cc3ccccc3C1=O)C2 (configuration not stated) ): > 100 µM

Recorded TGI (compound "CC(C)[C@H]1COC(=O)N1[C@@H]1C(=O)N([C@@H](CCC(=O)N2CCN(C3CCCC3)CC2)C(=O)N[C@@H]2CCCc3ccccc32)[C@@H]1/C=C/c1cccc(Br)c1" ): 8.4 µM

Recorded TGI (compound "CC(C)(C)OC(=O)N[C@H]1CC2(C=C(Cl)C(=O)C(Cl)=C2)OC1=O" ): 5.4 µM

Recorded TGI (compound "CCCSCC(P(=O)(O)O)P(=O)(O)O" ): > 100 µM
